# study target: MS2 coat protein, dlFG mutant (Escherichia phage MS2, UniProt P03612, del68-81insG)
# assay remarks: 4 mM Mg2+; L-tryptophan 2.4 mM; RNA-MaP array; 100 mM Tris-HCl pH 7.5, 80 mM KCl, 4 mM MgCl2, 0.1 mg/mL BSA, 1 mM DTT, 0.01 mg/mL yeast tRNA, 0.01% Tween-20; protein 1.5 nM to 3 uM; 37 C (Table S3)
# test context: chain copies: 2; label: tethered by stalled RNA polymerase
pKd: −log10 of the molar value.
Quick list: pKd per entry.
measured property: pKd

1. Eterna 7733368 (Same State - Tryptophan B) (ssRNA) RNA: GGGUACAUCGCGGCCGCCACUUAUGUAAAUACAUGAGGAUCACCCAUGUCGAUGGAGACAUCGGUAAGGACCGGGUGAUGUACCG ... 7.72
2. Eterna 7612216 (Same State - Tryptophan B) (ssRNA) RNA: GCUAGGUCAUCGGCCGCCACUAACGACGGUUCCAACAUGAGGAUCACCCAUGUGCCACAUGCGCAUAGGACCGGGAUGACCUAGC ... 7.68

Hello, the source for this data is paper PMC9170038, in case you need it.
